molecular target: recombinant human Cdk5/p25 (Homo sapiens); experiment: Scintillation Proximity Assay (SPA), peptide substrate phosphorylation; settings: recombinant human Cdk5/p25 3.3 nM, 2 μM ATP, biotinylated peptide substrate; read-out: IC50, inhibition of peptide substrate phosphorylation in SPA assay
Sequence (Q00535 whole entry): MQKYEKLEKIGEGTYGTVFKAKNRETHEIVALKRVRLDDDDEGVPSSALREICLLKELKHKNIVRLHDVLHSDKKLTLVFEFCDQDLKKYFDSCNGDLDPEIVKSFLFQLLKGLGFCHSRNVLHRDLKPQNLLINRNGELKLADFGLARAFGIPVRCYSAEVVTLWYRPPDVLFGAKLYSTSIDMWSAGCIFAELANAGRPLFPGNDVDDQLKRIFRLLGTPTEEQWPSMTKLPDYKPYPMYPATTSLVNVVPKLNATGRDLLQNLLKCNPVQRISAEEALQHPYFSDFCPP
Sequence (Q15078 99-307 partner limits assumed): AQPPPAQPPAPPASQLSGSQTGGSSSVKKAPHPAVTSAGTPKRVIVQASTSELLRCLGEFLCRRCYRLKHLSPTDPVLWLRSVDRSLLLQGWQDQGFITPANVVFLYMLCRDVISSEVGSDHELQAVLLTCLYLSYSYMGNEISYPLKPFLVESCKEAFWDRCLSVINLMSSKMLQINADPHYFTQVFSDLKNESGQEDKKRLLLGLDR
Result type: IC50 (nM)

(P) NS(=O)(=O)c1cc(-c2nc3ccc(Cl)cc3s2)cs1
(Q) CCn1c(=O)ccc2cnc(Nc3ccc(F)cc3)nc21
# argmax over IC50 for candidates P and Q Bench note: the answer is the label of the chosen record. P
(P: 355 nM, Q: 45 nM)
